System: PC-3 prostate
EXPERIMENT: NCI tumour cell line growth inhibition, 48 h
MEASUREMENT_KIND: TGI (µM)
Write the value in µM as a bare number.

Some compounds with known TGI results, for comparison:
{"columns": ["COMPOUND", "TGI, µM"],
 "data": [
  ["O=P(Nc1ccccc1)(Oc1ccccc1)N1CCN(c2ccccc2)CC1 (stereo unspecified)", 51.7],
  ["CCCCCc1c(Cl)nc(Cl)nc1Cl", 36.9],
  ["N#CCCN1C/C(=C/c2ccccc2)C(=O)/C(=C/c2ccccc2)C1", 7.9]
]}

Next compound, TGI to be filled in.
[in] API: value(readout= TGI, system= PC-3 prostate, query= O=C(CCl)Nc1ccc2c(Nc3cc(O)ccc3Cl)ncnc2c1 )
[out] 6.79

---

System: DU-145 prostate
EXPERIMENT: NCI tumour cell line growth inhibition, 48 h
MEASUREMENT_KIND: TGI

{"columns": ["MOLECULE", "TGI"],
 "data": [
  ["CC(=O)OCCOCn1cc(C=O)c2ccccc21", "> 100 µM"]
]}

[in] Need TGI, item Cc1ccc(C(=O)CCl)o1
[out] > 10 µM

[in] Need TGI, item CC[C@H](CC[C@@H](C)[C@H]1CC[C@H]2[C@@H]3CC=C4C[C@@H](O)CC[C@]4(C)[C@H]3CC[C@]12C)C(C)C
[out] > 100 µM

[in] Need TGI, item CC(C)(C)OC(=O)CCC1NC(=O)[C@@H]2Cc3c([nH]c4ccccc34)C(C3CCCCC3)N2C1=O (stereo not given in full)
[out] > 100 µM

[in] Need TGI, item Nc1c(C(=O)Nc2ccccc2)sc2nc3c(cc12)C(O)CCC3 (stereo not given)
[out] > 100 µM

[in] Need TGI, item COc1c(-c2ccccc2)oc2c(CP(=O)(OC)OC)cccc2c1=O
[out] > 100 µM

[in] Need TGI, item c1ccc2c(c1)Sc1ccccc1N2CC1CN2CCC1CC2 (stereo not given)
[out] 19.4 µM

---

Here, each record is paired with measured TGI data.
System: OVCAR-8 ovarian
EXPERIMENT: NCI tumour cell line growth inhibition, 48 h

Some compounds with known TGI results, for comparison:
{"columns": ["COMPOUND", "TGI"],
 "data": [
  ["COc1cc(C2c3cc4c(cc3[C@@H](NCCCN3CCCC3=O)C3COC(=O)[C@H]23)OCO4)cc(OC)c1O (some centres not stated)", "> 100 µM"],
  ["Clc1ccc(Cl)c(N=Nc2cc3c4c(c2)CCCN4CCC3)c1", "> 10 µM"],
  ["CC1(C)C(O)OC(O)C1(C)C (configuration not stated)", "> 100 µM"],
  ["COc1ccc(/C=C/C(=O)Oc2ccc(/C=C3\\CCCCC3=O)cc2)cc1", "> 100 µM"],
  ["O=C(O)c1cc2cc(OCc3ccccc3)ccc2[nH]1", "> 100 µM"],
  ["C[C@]12CC[C@@H]3c4ccc(OS(N)(=O)=O)cc4CC[C@H]3[C@@H]1CCC2=O", "> 100 µM"]
]}

[in] Need TGI, item C[PH+](C)C.C[PH+](C)C.[Au]
[out] 19 µM

[in] Need TGI, item Clc1ccc(C2c3ccccc3-c3nc4ccccc4n32)cc1 (configuration not stated)
[out] > 79.5 µM

[in] Need TGI, item Cc1ccc(S(=O)(=O)Oc2ccccc2-c2ccccc2)cc1
[out] > 100 µM

[in] Need TGI, item COc1cc2c3c(n(CCCN(C)C)c(=O)c2cc1OC)-c1cc2c(cc1C3=O)OCO2
[out] 3.04 µM

[in] Need TGI, item O=c1cc(N2CCOCC2)oc2c(-c3ccc4c(c3)OCCO4)csc12
[out] 12 µM
